experiment: Selectivity index, ratio of CC50 for cytotoxicity against human U2OS cells to IC50 for Trypanosoma cruzi Y Tc2 amastigotes infected in human U2OS cells; assay type: toxicity, cell-based; conditions: read-out: Ratio CC50/IC50
Listed here: items and their measured selectivity ratio.
measuredQuantity: selectivity ratio

compound=CCCCCCCOc1ccc(C(=O)N/N=C/c2ccc([N+](=O)[O-])o2)cc1 measuredquantity="selectivity ratio" measurement="> 227"
compound=N#Cc1ccc(C(=O)N/N=C/c2ccc([N+](=O)[O-])o2)cc1 measuredquantity="selectivity ratio" measurement=12.1
compound=CCCCCCCc1ccc(C(=O)N/N=C/c2ccc([N+](=O)[O-])o2)cc1 measuredquantity="selectivity ratio" measurement="> 244"
compound="CC(=O)N/N=C/c1ccc([N+](=O)[O-])o1 [NIHYDRAZONE]" measuredquantity="selectivity ratio" measurement=8.49
compound=CCCCOc1ccc(C(=O)N/N=C/c2ccc([N+](=O)[O-])o2)cc1 measuredquantity="selectivity ratio" measurement=31.9
compound=CCCCCc1ccc(C(=O)N/N=C/c2ccc([N+](=O)[O-])o2)cc1 measuredquantity="selectivity ratio" measurement="> 208"
compound=CCCCNc1ccc(C(=O)N/N=C/c2ccc([N+](=O)[O-])o2)cc1 measuredquantity="selectivity ratio" measurement=34.4
compound="CC1CS(=O)(=O)CCN1/N=C/c1ccc([N+](=O)[O-])o1 (configuration not stated)" measuredquantity="selectivity ratio" measurement=16.4
compound=O=C(N/N=C/c1ccc([N+](=O)[O-])o1)c1ccc(-c2ccccc2)cc1 measuredquantity="selectivity ratio" measurement=154
compound=O=C(N/N=C/c1ccc([N+](=O)[O-])o1)c1ccc2ccccc2c1 measuredquantity="selectivity ratio" measurement=34.3
compound=CCCCCC(=O)N/N=C/c1ccc([N+](=O)[O-])o1 measuredquantity="selectivity ratio" measurement=7.39
compound="O=C(N/N=C/c1ccc([N+](=O)[O-])o1)c1ccc(O)cc1 [NIFUROXAZIDE]" measuredquantity="selectivity ratio" measurement=10.7
compound=CC(C)(C)c1ccc(C(=O)N/N=C/c2ccc([N+](=O)[O-])o2)cc1 measuredquantity="selectivity ratio" measurement="> 140"
compound="CCCCCC1CCC(C(=O)N/N=C/c2ccc([N+](=O)[O-])o2)CC1 (configuration not stated)" measuredquantity="selectivity ratio" measurement="> 120"
compound=CCCCc1ccc(C(=O)N/N=C/c2ccc([N+](=O)[O-])o2)cc1 measuredquantity="selectivity ratio" measurement=14.7
compound=O=C(N/N=C/c1ccc([N+](=O)[O-])o1)c1cccs1 measuredquantity="selectivity ratio" measurement=53.9
compound=O=C(N/N=C/c1ccc([N+](=O)[O-])o1)C1CCCCC1 measuredquantity="selectivity ratio" measurement=8.77

---

experiment: Cytotoxicity against human U2OS cells assessed as reduction in cell viability; type: cell-based
Listed here: items and their measured CC50.
measuredQuantity: CC50

compound=CCCCOc1ccc(C(=O)N/N=C/c2ccc([N+](=O)[O-])o2)cc1 measurement="46.6 µM"
compound=CCCCc1ccc(C(=O)N/N=C/c2ccc([N+](=O)[O-])o2)cc1 measurement="19.6 µM"
compound=CCCCCC(=O)N/N=C/c1ccc([N+](=O)[O-])o1 measurement="19.3 µM"
compound=CCCCCCCOc1ccc(C(=O)N/N=C/c2ccc([N+](=O)[O-])o2)cc1 measurement="> 200 µM"
compound=O=C(N/N=C/c1ccc([N+](=O)[O-])o1)c1cccs1 measurement="57.2 µM"
compound="O=C(N/N=C/c1ccc([N+](=O)[O-])o1)c1ccc(O)cc1 [NIFUROXAZIDE]" measurement="45.7 µM"
compound=CCCCNc1ccc(C(=O)N/N=C/c2ccc([N+](=O)[O-])o2)cc1 measurement="12 µM"
compound=CC(C)(C)c1ccc(C(=O)N/N=C/c2ccc([N+](=O)[O-])o2)cc1 measurement="> 200 µM"
compound="CC(=O)N/N=C/c1ccc([N+](=O)[O-])o1 [NIHYDRAZONE]" measurement="39.2 µM"
compound=CCCCCCCc1ccc(C(=O)N/N=C/c2ccc([N+](=O)[O-])o2)cc1 measurement="> 200 µM"

The reported measurements were obtained from ChEMBL document CHEMBL4145444.
